- Assayed Target: human 5HT2c receptor (VSV Isoform) (Homo sapiens, UniProt P28335, I156V/I160V/N158S)
- Sequence (P28335 33-458 I156V/N158S/I160V limits assumed): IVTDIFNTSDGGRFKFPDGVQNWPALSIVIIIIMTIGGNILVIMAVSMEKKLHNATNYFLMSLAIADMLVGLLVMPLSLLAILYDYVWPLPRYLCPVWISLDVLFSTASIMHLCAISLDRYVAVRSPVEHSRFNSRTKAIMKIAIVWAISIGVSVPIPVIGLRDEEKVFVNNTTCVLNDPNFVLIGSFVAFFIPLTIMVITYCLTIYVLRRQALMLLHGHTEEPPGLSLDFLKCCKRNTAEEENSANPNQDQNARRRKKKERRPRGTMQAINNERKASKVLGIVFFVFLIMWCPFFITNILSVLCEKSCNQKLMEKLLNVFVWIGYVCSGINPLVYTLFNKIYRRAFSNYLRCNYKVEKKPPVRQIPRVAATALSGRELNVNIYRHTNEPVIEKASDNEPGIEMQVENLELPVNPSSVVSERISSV
- Assay Notes: cell-based
- Setup Conditions: 5-HT2c EC50 (hVSV, μM)
Exercise: for every item that follows, state its recorded EC50.

INPUT: # query: EC50 of entry Cc1cc2c(cc1Cl)C1CNCC1C2C (single isomer, unassigned) [23, Enantiomer 2]
OUTPUT: < 0.1 µM

INPUT: # query: EC50 of entry CC1c2cc(Cl)c(O)cc2C2CNCC12 (stereo not shown) [Example 4]
OUTPUT: < 1 µM

INPUT: # query: EC50 of entry Cc1cccc2c1C(C)C1CNCC21 (stereo not shown)
OUTPUT: < 1 µM

INPUT: # query: EC50 of entry CC1c2ccc(-c3c(F)cccc3F)cc2C2CNCC12 (single isomer, unassigned) [47, Enantiomer 2]
OUTPUT: > 10 µM

INPUT: # query: EC50 of entry CC1c2cc(Cl)ccc2C2CNCC12 (single isomer, unassigned) [5, Enantiomer 1]
OUTPUT: < 1 µM

INPUT: # query: EC50 of entry CC1c2c(ccc(Cl)c2Cl)C2CNCC12 (stereo not shown) [Example 27]
OUTPUT: < 0.1 µM

INPUT: # query: EC50 of entry CC1c2cc(Cl)c(OCc3ccc(F)cc3)cc2C2CNCC12 (stereo not shown) [Example 6]
OUTPUT: < 1 µM

INPUT: # query: EC50 of entry CC1c2cc(Br)c(O)cc2C2CNCC12 (single isomer, unassigned) [31, Enantiomer 2]
OUTPUT: < 0.1 µM

INPUT: # query: EC50 of entry Cc1cc2c(cc1Cl)C(C)C1CNCC21 (single isomer, unassigned) [21, Enantiomer 1]
OUTPUT: < 1 µM

INPUT: # query: EC50 of entry Clc1ccc2c(c1)CC1CNCC21 (stereo not shown)
OUTPUT: < 0.1 µM

INPUT: # query: EC50 of entry CC1c2c(ccc(Cl)c2Cl)C2CNCC12 (single isomer, unassigned) [27, Enantiomer 1]
OUTPUT: < 1 µM

INPUT: # query: EC50 of entry COc1ccc2c(c1Cl)C1CNCC1C2O (stereo not shown)
OUTPUT: < 1 µM

INPUT: # query: EC50 of entry CC1c2c(ccc(Cl)c2Cl)C2CNCC12 (single isomer, unassigned) [27, Enantiomer 2]
OUTPUT: < 0.1 µM

INPUT: # query: EC50 of entry COc1cc2c(cc1OC)C1CNCC1C2C (single isomer, unassigned) [36, Enantiomer 2]
OUTPUT: < 1 µM

INPUT: # query: EC50 of entry COc1cc2c(cc1Cl)C(=O)C1CNCC21 (stereo not shown)
OUTPUT: < 1 µM

INPUT: # query: EC50 of entry COc1c(Cl)cc2c(c1Cl)C1CNCC1C2C (single isomer, unassigned) [38, Enantiomer 2]
OUTPUT: < 0.1 µM

INPUT: # query: EC50 of entry COc1cc2c(cc1Br)C(C)C1CNCC21 (single isomer, unassigned) [30, Enantiomer 2]
OUTPUT: < 0.01 µM

INPUT: # query: EC50 of entry Fc1cccc(F)c1-c1ccc2c(c1)CC1CNCC21 (stereo not shown)
OUTPUT: > 10 µM

INPUT: # query: EC50 of entry CCOc1cc2c(cc1Cl)C(C)C1CNCC21 (single isomer, unassigned) [29, Enantiomer 2]
OUTPUT: < 0.1 µM

INPUT: # query: EC50 of entry CC1c2ccc(Cl)c(Cl)c2C2CNCC12 (single isomer, unassigned) [41, Enantiomer 2]
OUTPUT: < 10 µM

INPUT: # query: EC50 of entry CC1c2ccc(OCc3ccccc3F)cc2C2CNCC12 (single isomer, unassigned) [44, Enantiomer 2]
OUTPUT: < 10 µM

INPUT: # query: EC50 of entry CC1c2ccc(Cl)c(Cl)c2C2CNCC12 (single isomer, unassigned) [41, Enantiomer 1]
OUTPUT: < 1 µM

INPUT: # query: EC50 of entry COc1cc2c(cc1Cl)C(C)C1CNCC21 (single isomer, unassigned) [3, Enantiomer 2]
OUTPUT: < 0.1 µM

INPUT: # query: EC50 of entry CC1c2cc(Cl)c(O)cc2C2CNCC12 (single isomer, unassigned) [4, Enantiomer 2]
OUTPUT: < 0.1 µM

INPUT: # query: EC50 of entry Cc1ccc2c(c1)C(C)C1CNCC21 (stereo not shown) [Example 15]
OUTPUT: < 1 µM

INPUT: # query: EC50 of entry COc1cc2c(cc1Cl)C(C)C1CNCC21 (stereo not shown) [Example 3]
OUTPUT: < 0.1 µM

INPUT: # query: EC50 of entry CC1c2cccc(F)c2C2CNCC12 (stereo not shown)
OUTPUT: < 10 µM

INPUT: # query: EC50 of entry COc1ccc2c(c1)C1CNCC1C2C (stereo not shown) [Example 1]
OUTPUT: > 10 µM

INPUT: # query: EC50 of entry COc1ccc2c(c1Cl)C1CNCC1C2C (single isomer, unassigned) [25, Enantiomer 2]
OUTPUT: < 1 µM

INPUT: # query: EC50 of entry CC1c2c(ccc(Cl)c2F)C2CNCC12 (single isomer, unassigned) [42, Enantiomer 1]
OUTPUT: < 10 µM

INPUT: # query: EC50 of entry Cc1cc2c(cc1Cl)C1CNCC1C2C (stereo not shown) [Example 23]
OUTPUT: < 1 µM

INPUT: # query: EC50 of entry Cc1cc2c(cc1Cl)C(C)C1CNCC21 (stereo not shown) [Example 21]
OUTPUT: < 0.1 µM

INPUT: # query: EC50 of entry c1ccc2c(c1)CC1CNCC21 (stereo not shown)
OUTPUT: < 10 µM

INPUT: # query: EC50 of entry COc1cc2c(cc1-c1cccs1)C(C)C1CNCC21 (single isomer, unassigned) [32, Enantiomer 2]
OUTPUT: > 10 µM

INPUT: # query: EC50 of entry COc1cc2c(cc1Cl)CC1CNCC21 (single isomer, unassigned) [37, Enantiomer 1]
OUTPUT: < 0.1 µM

INPUT: # query: EC50 of entry CC1c2cc(Cl)c(Cl)cc2C2CNCC12 (single isomer, unassigned) [26, Enantiomer 2]
OUTPUT: < 0.1 µM

INPUT: # query: EC50 of entry Cc1cccc2c1C1CNCC1C2C (stereo not shown)
OUTPUT: < 1 µM
